Ref: paper PMC5540273

System: MAK
Conditions: concentration: 1 μM,replicates: in singlicate; n = 1;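 also: KINOMEscan kinase panel screen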
Measured %Inh values are reported for all entries that follow.

>  <compound>
Cc1cccc(-c2nc(Nc3ccncc3)c3sccc3n2)n1 [GW869641]

>  <%Inh [%]>
0

$$$$
>  <compound>
COc1cccc(CNC(=O)NC2CCN(c3ccnc(Nc4cc(OC)c(OC)c(OC)c4)n3)C2)c1 (stereo not shown) [GSK1379765]

>  <%Inh [%]>
31

$$$$
>  <compound>
NC(=O)c1ccc(-c2cc3ncnc(SCC(=O)O)c3s2)cc1

>  <%Inh [%]>
45

$$$$
>  <compound>
c1ccc(Oc2ccc(Nc3ccnc4ccc(-c5ccccn5)cc34)cc2)cc1 [GW407034]

>  <%Inh [%]>
59

$$$$
>  <compound>
Cc1n[nH]c2cc(Nc3ccnc(Nc4cccc(CN5CCOCC5)c4)n3)ccc12 [GW682569]

>  <%Inh [%]>
20

$$$$
>  <compound>
CC(C)c1nc(-c2cccc(NS(=O)(=O)c3ccccc3)c2)c(-c2ccnc(Nc3ccc4c(c3)CN(C)CC4)n2)s1 [GSK1649598]

>  <%Inh [%]>
53

$$$$
>  <compound>
Cl.Nc1n[nH]c2cc(-c3ccccn3)ccc12 [GSK2189892]

>  <%Inh [%]>
29

$$$$
>  <compound>
OCCn1cc(-c2cnc3nnn(Cc4ccc5ncccc5c4)c3n2)cn1

>  <%Inh [%]>
0

$$$$
>  <compound>
C[C@@H](Oc1cc(-n2cnc3cc(-c4ccncc4)ccc32)sc1C(N)=O)c1ccccc1Cl [GSK479719]

>  <%Inh [%]>
0

$$$$
>  <compound>
NC(=O)Nc1sc(-c2ccc(F)cc2)cc1C(N)=O [GW789449]

>  <%Inh [%]>
0

$$$$
>  <compound>
CCN1CCN(CCCC(=O)Nc2n[nH]c3nc(-c4ccc(O)cc4)c(Br)cc23)CC1 [SB-731579]

>  <%Inh [%]>
35

$$$$
>  <compound>
O=C(NCC1CC1)c1ccc(-c2cc(C(=O)NC3CC3)ccc2F)cc1 [GW810445]

>  <%Inh [%]>
0

$$$$
>  <compound>
CN1CCN(CCNc2nc3cc(Oc4ccc(NC(=O)Nc5cc(C(F)(F)F)ccc5F)cc4)ccc3[nH]2)CC1.Cl.Cl [GW768504]

>  <%Inh [%]>
13

$$$$
>  <compound>
Cc1ccc(C(=O)Nc2ccc(Oc3ccc4nc(NC(=O)C5CC5)cn4c3)c(F)c2)c(=O)n1-c1ccccc1

>  <%Inh [%]>
0

$$$$
>  <compound>
CSc1nccc(-c2c(-c3ccc(F)cc3)ncn2CCCN2CCOCC2)n1.Cl [SB-217146]

>  <%Inh [%]>
0

$$$$
>  <compound>
Cn1ccc2ncnc(Oc3ccc(NC(=O)Nc4cnn(C(C)(C)C)c4)c(Cl)c3)c21

>  <%Inh [%]>
0

$$$$

---

Measured %Inh by item
System: PDGFRB
Settings: concentration: 1 μM,replicates: in singlicate; n = 1

>  <molecule>
CSc1nccc(-c2c(-c3ccc(F)cc3)ncn2CCCN2CCOCC2)n1.Cl

>  <tested-system>
PDGFRB

>  <result-units>
%

>  <%Inh>
12

$$$$
>  <molecule>
COc1cccc(C2=C(Nc3cccc(Cl)c3)C(=O)NC2=O)c1

>  <tested-system>
PDGFRB

>  <result-units>
%

>  <%Inh>
17

$$$$
>  <molecule>
FC(F)(F)c1cc(Br)cc(Nc2nccc(-c3cnn4ncccc34)n2)c1

>  <tested-system>
PDGFRB

>  <result-units>
%

>  <%Inh>
98.4

$$$$
>  <molecule>
O=C(NOCC1CC1)c1cc(Br)c(F)c(F)c1Nc1ccc(I)cc1Cl

>  <tested-system>
PDGFRB

>  <result-units>
%

>  <%Inh>
13

$$$$
>  <molecule>
Nc1nccc(-c2ccc3c(N)n[nH]c3c2)n1

>  <tested-system>
PDGFRB

>  <result-units>
%

>  <%Inh>
17

$$$$
>  <molecule>
CN1CCN(CCNc2nc3cc(Oc4ccc(NC(=O)Nc5cc(C(F)(F)F)ccc5F)cc4)ccc3[nH]2)CC1.Cl.Cl

>  <tested-system>
PDGFRB

>  <result-units>
%

>  <%Inh>
99.6

$$$$
>  <molecule>
O=C(Nc1ccc(Oc2ccc3nc(NC(=O)C4CC4)cn3n2)c(F)c1)c1cccn(-c2ccccc2)c1=O

>  <tested-system>
PDGFRB

>  <result-units>
%

>  <%Inh>
100

$$$$
>  <molecule>
CCn1c(-c2nonc2N)nc2cncc(CNC3CCNCC3)c21.Cl

>  <tested-system>
PDGFRB

>  <result-units>
%

>  <%Inh>
4

$$$$
>  <molecule>
CCOC(=O)N1CCC(n2cnc(-c3ccc(F)cc3)c2-c2ccnc(N)n2)CC1

>  <tested-system>
PDGFRB

>  <result-units>
%

>  <%Inh>
23

$$$$
>  <molecule>
NC(=O)c1ccc(-c2cc3ncnc(SCC(=O)O)c3s2)cc1

>  <tested-system>
PDGFRB

>  <result-units>
%

>  <%Inh>
80

$$$$
>  <molecule>
Cc1ccn2nc(-c3ccc(F)cc3)c(-c3ccncc3)c2c1.Cl

>  <tested-system>
PDGFRB

>  <result-units>
%

>  <%Inh>
33

$$$$
>  <molecule>
Cc1n[nH]c2cc(Nc3ccnc(Nc4cccc(CN5CCOCC5)c4)n3)ccc12

>  <tested-system>
PDGFRB

>  <result-units>
%

>  <%Inh>
95.4

$$$$
>  <molecule>
C[C@@H](Oc1cc(-n2cnc3ccc(-c4ccncc4)cc32)sc1C(N)=O)c1ccccc1Cl

>  <tested-system>
PDGFRB

>  <result-units>
%

>  <%Inh>
54

$$$$
>  <molecule>
CC(=O)Nc1nc2cnc(Nc3cc(NC(=O)c4cccc(CC(C)(C)C#N)c4)ccc3C)nc2s1

>  <tested-system>
PDGFRB

>  <result-units>
%

>  <%Inh>
100

$$$$
>  <molecule>
NC(=O)Nc1sc(-c2ccc(F)cc2)cc1C(N)=O

>  <tested-system>
PDGFRB

>  <result-units>
%

>  <%Inh>
54

$$$$
>  <molecule>
CS(=O)(=O)Nc1ccc(-c2ccnc3[nH]ccc23)cc1

>  <tested-system>
PDGFRB

>  <result-units>
%

>  <%Inh>
61

$$$$
>  <molecule>
O=c1[nH]cc(-c2ccc(O)cc2)c2sc(-c3ccncc3)cc12

>  <tested-system>
PDGFRB

>  <result-units>
%

>  <%Inh>
18

$$$$
>  <molecule>
CCN1CCN(CCCC(=O)Nc2n[nH]c3nc(-c4ccc(O)cc4)c(Br)cc23)CC1

>  <tested-system>
PDGFRB

>  <result-units>
%

>  <%Inh>
99.4

$$$$
>  <molecule>
c1ccc(Oc2ccc(Nc3ccnc4ccc(-c5ccccn5)cc34)cc2)cc1

>  <tested-system>
PDGFRB

>  <result-units>
%

>  <%Inh>
34

$$$$
>  <molecule>
COc1cccc(OC)c1C(=O)Nc1cccc(-c2nn3ccccc3c2-c2ccnc(Nc3cccc(F)c3)n2)c1

>  <tested-system>
PDGFRB

>  <result-units>
%

>  <%Inh>
90.2

$$$$
>  <molecule>
CCn1c(-c2nonc2N)nc2cncc(Br)c21

>  <tested-system>
PDGFRB

>  <result-units>
%

>  <%Inh>
18

$$$$
>  <molecule>
N#Cc1cccc(C(=O)NC2CCN(c3ccnc(Nc4ccc(F)cc4)n3)C2)c1 (stereo not drawn)

>  <tested-system>
PDGFRB

>  <result-units>
%

>  <%Inh>
23

$$$$
>  <molecule>
C[C@@H](Oc1cc(-n2cnc3cc(-c4cnn(C)c4)ccc32)sc1C(N)=O)c1ccccc1Cl

>  <tested-system>
PDGFRB

>  <result-units>
%

>  <%Inh>
99.8

$$$$
>  <molecule>
CC(C)S(=O)(=O)N1CCN(Cc2ccc3c(c2)nc(NC(=O)c2ccsc2)n3C[C@H](O)c2ccccc2)CC1

>  <tested-system>
PDGFRB

>  <result-units>
%

>  <%Inh>
38

$$$$
>  <molecule>
O=C(Nc1ccccc1)c1cccc(Oc2ccc3nccn3n2)c1

>  <tested-system>
PDGFRB

>  <result-units>
%

>  <%Inh>
99.3

$$$$
>  <molecule>
CC(C(=O)NC1CCN(c2ccnc(Nc3ccc(F)cc3)n2)C1)c1ccc(Cl)cc1 (stereo not drawn)

>  <tested-system>
PDGFRB

>  <result-units>
%

>  <%Inh>
7

$$$$
>  <molecule>
C[C@@H]1CNc2c(sc3ccc4nc(-c5ccc(O)cc5)ccc4c23)C(=O)N1

>  <tested-system>
PDGFRB

>  <result-units>
%

>  <%Inh>
56

$$$$

---

We begin with a simple list: items and their reported %Inh.
System: STK39
Conditions: concentration: 1 μM,replicates: in singlicate; n = 1

>  <compound-string>
O=C(Nc1n[nH]c2cc(-c3ccco3)ccc12)C1CC1

>  <result-units>
%

>  <%Inh>
5

$$$$
>  <compound-string>
O=c1[nH]cc(-c2ccc(O)cc2)c2sc(-c3ccncc3)cc12

>  <result-units>
%

>  <%Inh>
6

$$$$
>  <compound-string>
COC(=O)c1cccc(NC(=O)NC2CCN(c3ccnc(NCc4ccc(F)cc4)n3)CC2)c1

>  <result-units>
%

>  <%Inh>
0

$$$$
